# Tested on: 242566-281-R-J2-PDC complex spheroid viability;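 note: spheroids exposed to compounds for 7 days before readout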
# method_summary: Anticancer human tumor 242566-281-R-J2-PDC patient-derived pancreatic carcinoma cell line growth inhibition [CLK]
# assay_setup: second compound 0.316 µM; first compound 0.316 µM; hits give low values
We label by threshold. Values of viability, T/C strictly beneath 50% are satisfied. Values of 50% and up are not satisfied.

{"columns": ["compound", "answer_label"],
 "data": [
  ["CCN1CCN(Cc2ccc(Nc3ncc(F)c(-c4cc(F)c5nc(C)n(C(C)C)c5c4)n3)nc2)CC1 + CN1CCN(c2cc(C(=O)Nc3cc4cc(-c5cnn(C)c5)ccc4cn3)ccn2)CC1", "not satisfied"],
  ["O=c1[nH]cc(F)c(=O)[nH]1 + CN1CCN(c2cc(C(=O)Nc3cc4cc(-c5cnn(C)c5)ccc4cn3)ccn2)CC1", "satisfied"],
  ["CCc1c2c(nc3ccc(O)cc13)-c1cc3c(c(=O)n1C2)COC(=O)[C@]3(O)CC + CN1CCN(c2cc(C(=O)Nc3cc4cc(-c5cnn(C)c5)ccc4cn3)ccn2)CC1", "satisfied"],
  ["CCCS(=O)(=O)Nc1ccc(F)c(C(=O)c2c[nH]c3ncc(-c4ccc(Cl)cc4)cc23)c1F + CN1CCN(c2cc(C(=O)Nc3cc4cc(-c5cnn(C)c5)ccc4cn3)ccn2)CC1", "satisfied"]
]}

--- query ---
viability, T/C strictly < 50% for this compound? CC1(C)CCC(CN2CCN(c3ccc(C(=O)NS(=O)(=O)c4ccc(NCC5CCOCC5)c([N+](=O)[O-])c4)c(Oc4cnc5[nH]ccc5c4)c3)CC2)=C(c2ccc(Cl)cc2)C1 + CNC(=O)c1ccc(Nc2nc(OC3CCCC3)c3c(-c4ccc5nc(C)oc5c4)c[nH]c3n2)c(OC)c1
not satisfied
